test-details: Human hepatocyte clearance (relay assay)
assay-context: human, % Remaining, 10 µM, hepatocyte donor HC06, 0 h, single replicates
parameter: remaining at 0 h, 10 µM (%)
Dear colleague, please return just the value in %, with no unit written.

Could you share which remaining at 0 h, 10 µM value was measured for CCOc1ccc2ccc(=O)oc2c1 [7-Ethoxycoumarin] ?
100

---

test-details: Blood concentration and PK in infected NSG mice after single oral dose
Type: in vivo, mouse
assay-context: female, NSG (NODscidIL2Rγnull), mouse, whole blood, oral, 50 mg/kg, 4 h post treatment, per mouse
parameter: concentration at 4 h
Returns: string containing the number followed by the unit.

Could you share which concentration at 4 h value was measured for C[C@@H](CNC(=O)[C@H](O)C(C)(C)CO)NC(=O)c1cc(C#N)ccc1F ?
552 ng/mL

---

test-target: hCaV 1.2 (Homo sapiens, UniProt Q13936)
Construct: Metrion Biosciences
Sequence (Q13936 whole entry): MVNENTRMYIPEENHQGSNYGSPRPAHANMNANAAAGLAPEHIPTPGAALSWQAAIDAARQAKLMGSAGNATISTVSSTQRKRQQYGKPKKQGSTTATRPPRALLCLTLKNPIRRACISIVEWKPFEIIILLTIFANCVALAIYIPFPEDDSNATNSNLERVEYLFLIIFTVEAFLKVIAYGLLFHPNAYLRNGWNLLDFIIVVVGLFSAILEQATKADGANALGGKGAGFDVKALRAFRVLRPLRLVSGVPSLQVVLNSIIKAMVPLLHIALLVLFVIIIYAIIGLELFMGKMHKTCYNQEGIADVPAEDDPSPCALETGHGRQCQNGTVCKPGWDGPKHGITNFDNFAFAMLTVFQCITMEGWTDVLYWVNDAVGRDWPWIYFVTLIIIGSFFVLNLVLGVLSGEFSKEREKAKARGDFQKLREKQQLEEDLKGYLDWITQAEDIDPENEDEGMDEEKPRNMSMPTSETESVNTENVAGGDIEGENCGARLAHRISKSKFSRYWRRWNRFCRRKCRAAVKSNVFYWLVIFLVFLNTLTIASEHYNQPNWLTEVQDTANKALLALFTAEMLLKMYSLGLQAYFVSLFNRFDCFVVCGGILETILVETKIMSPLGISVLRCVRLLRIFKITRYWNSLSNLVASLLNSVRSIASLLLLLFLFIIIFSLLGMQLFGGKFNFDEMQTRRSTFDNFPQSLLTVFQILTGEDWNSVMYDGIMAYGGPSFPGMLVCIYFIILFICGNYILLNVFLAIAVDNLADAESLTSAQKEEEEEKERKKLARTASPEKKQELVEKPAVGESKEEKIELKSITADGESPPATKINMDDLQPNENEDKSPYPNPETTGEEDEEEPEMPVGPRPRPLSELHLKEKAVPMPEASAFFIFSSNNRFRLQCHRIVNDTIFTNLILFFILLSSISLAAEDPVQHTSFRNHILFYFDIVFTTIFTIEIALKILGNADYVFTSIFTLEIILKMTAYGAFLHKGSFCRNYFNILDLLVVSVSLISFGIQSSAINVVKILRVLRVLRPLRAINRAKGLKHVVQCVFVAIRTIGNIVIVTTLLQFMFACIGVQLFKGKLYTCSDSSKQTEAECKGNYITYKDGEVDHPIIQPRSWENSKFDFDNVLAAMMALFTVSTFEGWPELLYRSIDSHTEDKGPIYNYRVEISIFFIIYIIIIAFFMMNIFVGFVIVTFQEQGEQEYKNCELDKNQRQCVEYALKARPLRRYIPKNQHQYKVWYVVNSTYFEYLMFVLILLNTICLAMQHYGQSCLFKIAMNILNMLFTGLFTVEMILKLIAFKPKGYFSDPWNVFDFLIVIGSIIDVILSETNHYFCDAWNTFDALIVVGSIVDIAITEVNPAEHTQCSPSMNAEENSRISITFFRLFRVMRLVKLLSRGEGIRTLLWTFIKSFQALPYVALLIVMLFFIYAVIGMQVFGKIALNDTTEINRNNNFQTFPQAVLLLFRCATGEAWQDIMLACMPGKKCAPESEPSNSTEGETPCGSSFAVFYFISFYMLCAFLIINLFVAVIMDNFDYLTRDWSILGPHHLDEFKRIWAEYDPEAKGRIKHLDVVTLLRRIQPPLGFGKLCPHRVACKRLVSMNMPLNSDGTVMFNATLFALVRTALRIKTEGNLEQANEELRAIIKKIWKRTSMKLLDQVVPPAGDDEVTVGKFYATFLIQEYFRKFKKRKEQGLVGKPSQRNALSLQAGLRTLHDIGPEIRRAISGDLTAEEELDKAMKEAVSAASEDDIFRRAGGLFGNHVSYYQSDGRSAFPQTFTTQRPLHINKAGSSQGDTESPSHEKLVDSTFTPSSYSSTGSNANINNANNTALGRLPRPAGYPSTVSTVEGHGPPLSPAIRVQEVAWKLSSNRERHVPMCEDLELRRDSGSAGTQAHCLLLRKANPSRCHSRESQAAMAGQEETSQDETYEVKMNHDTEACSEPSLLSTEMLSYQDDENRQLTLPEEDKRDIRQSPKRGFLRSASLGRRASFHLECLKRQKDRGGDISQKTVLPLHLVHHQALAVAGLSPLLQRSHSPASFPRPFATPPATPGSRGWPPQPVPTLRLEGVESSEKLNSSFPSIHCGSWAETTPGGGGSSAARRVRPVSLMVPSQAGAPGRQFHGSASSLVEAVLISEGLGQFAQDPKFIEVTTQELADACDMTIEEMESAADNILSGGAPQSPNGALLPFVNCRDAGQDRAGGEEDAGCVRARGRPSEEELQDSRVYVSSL
Sequence (Q08289 whole entry partner): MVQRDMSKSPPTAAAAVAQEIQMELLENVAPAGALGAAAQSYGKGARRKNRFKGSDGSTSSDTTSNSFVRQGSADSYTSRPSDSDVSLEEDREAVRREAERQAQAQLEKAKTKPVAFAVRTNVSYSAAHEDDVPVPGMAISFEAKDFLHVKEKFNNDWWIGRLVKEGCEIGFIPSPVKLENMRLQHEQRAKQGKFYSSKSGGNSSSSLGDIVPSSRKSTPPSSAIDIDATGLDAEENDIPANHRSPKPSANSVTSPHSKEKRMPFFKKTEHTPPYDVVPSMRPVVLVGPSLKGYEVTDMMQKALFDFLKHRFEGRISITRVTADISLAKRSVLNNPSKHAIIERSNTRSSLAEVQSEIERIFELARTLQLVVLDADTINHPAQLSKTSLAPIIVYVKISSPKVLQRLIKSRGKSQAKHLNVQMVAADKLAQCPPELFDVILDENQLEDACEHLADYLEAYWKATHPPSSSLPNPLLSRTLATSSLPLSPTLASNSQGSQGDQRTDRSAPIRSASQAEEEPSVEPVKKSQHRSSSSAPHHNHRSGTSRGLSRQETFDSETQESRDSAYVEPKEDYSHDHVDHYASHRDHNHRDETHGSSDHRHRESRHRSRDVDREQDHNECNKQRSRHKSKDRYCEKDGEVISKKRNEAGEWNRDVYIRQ
Sequence (P54289 25-946 partner limits assumed): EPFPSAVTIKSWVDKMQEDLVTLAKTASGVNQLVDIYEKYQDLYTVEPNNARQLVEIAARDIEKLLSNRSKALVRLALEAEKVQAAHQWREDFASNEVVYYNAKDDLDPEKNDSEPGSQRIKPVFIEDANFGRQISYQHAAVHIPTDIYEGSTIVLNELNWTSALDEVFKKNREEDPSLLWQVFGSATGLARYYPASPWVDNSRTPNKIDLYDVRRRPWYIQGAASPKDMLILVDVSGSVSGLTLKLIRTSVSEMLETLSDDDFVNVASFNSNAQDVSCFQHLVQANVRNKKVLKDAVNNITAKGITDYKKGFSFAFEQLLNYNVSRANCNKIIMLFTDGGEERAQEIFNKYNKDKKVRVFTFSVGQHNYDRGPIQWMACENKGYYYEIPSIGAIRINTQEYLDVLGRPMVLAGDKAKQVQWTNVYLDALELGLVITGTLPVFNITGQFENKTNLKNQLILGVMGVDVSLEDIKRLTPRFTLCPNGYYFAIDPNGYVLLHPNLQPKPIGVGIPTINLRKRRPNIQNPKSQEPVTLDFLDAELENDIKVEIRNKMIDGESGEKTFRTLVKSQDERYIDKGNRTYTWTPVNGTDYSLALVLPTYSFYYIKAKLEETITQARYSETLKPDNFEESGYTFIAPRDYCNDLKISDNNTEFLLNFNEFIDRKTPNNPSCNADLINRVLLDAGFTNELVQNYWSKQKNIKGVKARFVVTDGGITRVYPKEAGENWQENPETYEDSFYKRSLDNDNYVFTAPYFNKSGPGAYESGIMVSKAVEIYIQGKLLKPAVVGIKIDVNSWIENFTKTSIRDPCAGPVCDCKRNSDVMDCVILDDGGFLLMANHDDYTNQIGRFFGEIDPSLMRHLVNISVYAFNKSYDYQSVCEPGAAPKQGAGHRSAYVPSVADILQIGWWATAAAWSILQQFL
Sequence (P54289 947-1103 partner limits assumed): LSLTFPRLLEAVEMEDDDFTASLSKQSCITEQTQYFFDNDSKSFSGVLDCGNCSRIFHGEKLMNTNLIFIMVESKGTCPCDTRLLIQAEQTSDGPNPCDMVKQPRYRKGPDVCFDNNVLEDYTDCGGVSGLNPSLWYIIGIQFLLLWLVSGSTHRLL
test-details: Manual patch clamp
assay-context: hCaV 1.2
parameter: IC50

Could you share which IC50 value was measured for C[C@@H](CNC(=O)[C@H](O)C(C)(C)CO)NC(=O)c1cc(F)c(F)cc1F ?
> 10 µM

---

Test system: P. falciparum field isolates from Uganda
test-details: Ex vivo growth inhibition assay, Uganda field isolates
Assay type: cell-based, Plasmodium falciparum
assay-context: N = 230 isolates; read-out: IC50 minimum
Method: An ex vivo growth inhibition assay was performed on fresh clinical P. falciparum isolates in Uganda. […] Parasite density was quantified by fluorescence after incubation with SYBR Green lysis buffer measured on a BMG Fluostar Optima plate reader, as previously described.
parameter: IC50 (nM)
Dear colleague, please return just the value in nM, with no unit written.

Could you share which IC50 value was measured for C[C@@H](CNC(=O)[C@H](O)C(C)(C)CO)NC(=O)c1cc(F)c(F)cc1F ?
0.3

---

System: P. falciparum field isolates from Uganda
test-details: Ex vivo growth inhibition assay, Uganda field isolates
Type: cell-based, Plasmodium falciparum
assay-context: N = 230 isolates; read-out: IC50 maximum
parameter: IC50
Returns: string containing the number followed by the unit.

Observed IC50 on P. falciparum field isolates from Uganda for C[C@@H](CNC(=O)[C@H](O)C(C)(C)CO)NC(=O)c1cc(F)c(F)cc1F [MMV693183] , please.
11 nM

---

test-details: Human hepatocyte clearance (relay assay)
assay-context: human, % Remaining, 10 µM, hepatocyte donor HC06, 6 h, single replicates
parameter: remaining at 6 h, 10 µM (%)
Dear colleague, please return just the value in %, with no unit written.

Could you share which remaining at 6 h, 10 µM value was measured for CCOc1ccc2ccc(=O)oc2c1 [7-Ethoxycoumarin] ?
56.3

---

test-details: in vitro
assay-context: human, Caco-2, pH 7.4, Papp AVG
parameter: Papp at 9000 Sec, 2 µM (×10⁻⁶ cm/s)
Dear colleague, please return just the value in ×10⁻⁶ cm/s, with no unit written.

Could you share which Papp at 9000 Sec, 2 µM value was measured for NC(=O)N1c2ccccc2C=Cc2ccccc21 [Carbamazepine] ?
25

---

test-details: Human hepatocyte clearance (relay assay)
assay-context: human, hepatocytes
parameter: hepatocyte CLint (µL/min/1e6 cells)
Dear colleague, please return just the value in µL/min/1e6 cells, with no unit written.

Could you share which hepatocyte CLint value was measured for C[C@@H](CNC(=O)[C@H](O)C(C)(C)CO)NC(=O)c1cc(C#N)ccc1F [MMV693182] ?
0.2
